molecular target: IMPDH human type II (Homo sapiens, UniProt P12268)
Reported Ki values for a set of compounds

{"compound": "O=C(Nc1ccc(Br)cc1)c1cc2ccccc2cc1O [Compound 131]", "observed-property": "Ki", "experimental-value": "10 to 20 µM"}

Enquiry: Identify measured Ki corresponding to COc1ccccc1N(C)C(=O)c1cc2cc(Br)ccc2cc1O [Compound 149]
Return: 10 to 20 µM

Enquiry: Identify measured Ki corresponding to O=C(Nc1ccccc1O)c1cc2ccccc2cc1O [Compound 190]
Return: > 20 µM

Enquiry: Identify measured Ki corresponding to COc1cccc(OC)c1S(=O)(=O)Nc1ccc(C(C)(C)C)cc1 [Compound 311]
Return: 10 to 20 µM

Enquiry: Identify measured Ki corresponding to C=CCN(C(=O)c1cc2ccccc2cc1O)c1ccccc1OC [Compound 106]
Return: 10 to 20 µM
